assay_info: Maxima of UV-A and UV-B absorption of quinoxaline derivatives in 2-propanol
Type: physicochemical
condition_notes: 1 mg of substance per 100 ml of solvent, wavelength of UV-B maximum
measured_quantity: UV-B (280 320 nm) λ [nm]
Numbers only, in nm.

Here are 5 molecules together with their reported answers.
# molecule, meas_value
records = [
    ("COC(=O)c1cc(Nc2cnc3ccccc3n2)cc(C(=O)OC)c1", 287.7),
    ("O=c1[nH]c2ccccc2nc1/C=C/C=C/c1ccccc1", 281.5),
    ("Cc1ccc(/C=C/c2nc3ccccc3nc2/C=C/c2ccc(C)cc2)cc1", 316.0),
    ("CCC(CC)COC(=O)c1ccc(Nc2cnc3ccccc3n2)c(O)c1", 291.0),
    ("CCOC(=O)CCC(NC(=O)c1ccc(Nc2cnc3ccccc3n2)cc1)C(=O)OCC (stereo not drawn)", 307.0),
]

Below are some molecules; for each one, tell me its UV-B (280 320 nm) λ [nm].
1. CCC(=O)c1cnc2ccccc2n1
2. CCOC(=O)c1ccc(Nc2cnc3ccccc3n2)cc1
3. CC(C)(C)OC(=O)c1ccc(Nc2cnc3ccccc3n2)cc1
4. O=C(/C=C/c1ccc2c(c1)OCO2)c1cnc2ccccc2n1

[307.0, 306.0, 306.3, 305.0]

---

assay_info: Maxima of UV-A and UV-B absorption of quinoxaline derivatives in 2-propanol
Format: physicochemical
condition_notes: 1 mg of substance per 100 ml of solvent, absorbance at UV-A maximum
Assign a class from recorded UV-A (400 320 nm) Max. abs.; defined classes: 0 (below 0.4), 1 (0.4 to below 0.5), 2 (0.5 or more)

# smiles_string, label_value
data = [
    ("C(#Cc1nc2ccccc2nc1C#Cc1ccccc1)c1ccccc1", 1),
    ("CC(C)OC(=O)c1ccc(Nc2cnc3ccccc3n2)cc1", 2),
    ("CCOC(=O)c1nc2ccccc2nc1Cl", 0),
    ("CN(C)c1cnc2ccccc2n1", 1),
    ("c1ccc(CNc2cnc3ccccc3n2)cc1", 0),
]

Assign a category based on measured UV-A (400 320 nm) Max. abs. for COc1cc(Nc2cnc3ccccc3n2)c(C(=O)O)cc1OC and give only the class name.
1

Assign a category based on measured UV-A (400 320 nm) Max. abs. for CC(=O)c1ccn2c(c1)nc1nc3ccccc3nc12 and give only the class name.
2

Assign a category based on measured UV-A (400 320 nm) Max. abs. for c1ccc2nc(Oc3cnc4ccccc4n3)cnc2c1 and give only the class name.
0

Assign a category based on measured UV-A (400 320 nm) Max. abs. for CCOC(=O)c1nc2ccccc2nc1Nc1cc(F)c(F)cc1C(=O)O and give only the class name.
0

Assign a category based on measured UV-A (400 320 nm) Max. abs. for O=C(O)c1ccc(Nc2cnc3ccccc3n2)c(O)c1 and give only the class name.
2

Assign a category based on measured UV-A (400 320 nm) Max. abs. for COC(=O)CCc1ccc2nc3nc4ccccc4nc3n2c1 and give only the class name.
0

---

assay_info: Maxima of UV-A and UV-B absorption of quinoxaline derivatives in 2-propanol
Type: physicochemical
condition_notes: 1 mg of substance per 100 ml of solvent, absorbance at UV-A maximum
What UV-A (400 320 nm) Max. abs. was measured for each of the following?
Give bare numbers.

Here are 8 molecules together with their reported answers.
# smiles_string, UV-A (400 320 nm) Max. abs.
data = [
    ("O=c1[nH]c2ccccc2nc1/C=C/c1ccccc1", 0.7324),
    ("Fc1ccc2nc3nc4ccccc4nc3n2c1", 0.132),
    ("Nc1nc2ccccc2nc1NC(=O)c1cc(C(F)(F)F)cc(C(F)(F)F)c1", 0.4130),
    ("COc1cc(Nc2cnc3ccccc3n2)cc(OC)c1OC", 0.281),
    ("CCOC(=O)c1nc2ccccc2nc1Nc1ccc(C(C)=O)cc1", 1.2265),
    ("Clc1nc2ccccc2nc1-c1ccccc1", 0.173),
    ("Fc1nc2ccccc2nc1N(c1ncccn1)c1nc2ccccc2nc1F", 0.446),
    ("Brc1cnc2ccccc2n1", 0.4424),
]

Below are some molecules; for each one, tell me its UV-A (400 320 nm) Max. abs..
1. CCc1ccn2c(c1)nc1nc3ccccc3nc12
2. O=c1[nH]c2ccccc2nc1-c1ccccc1

0.536
0.360

Below are some molecules; for each one, tell me its UV-A (400 320 nm) Max. abs..
1. CCOC(=O)c1nc2ccccc2[nH]c1=O
2. c1ccc2nc3c(nc2c1)nc1ccccn13
3. COc1cc(Nc2nc3ccccc3nc2-c2ccccc2)c(C(=O)O)cc1OC
4. FC(F)(F)c1cc(CNc2cnc3ccccc3n2)cc(C(F)(F)F)c1
5. O=C(O)c1cc(Nc2cnc3ccccc3n2)cc(C(=O)O)c1
6. O=C(O)c1ccc(Nc2nc3ccccc3nc2-c2ccccc2)cc1
7. O=C(/C=C/c1ccccc1)c1cnc2ccccc2n1

0.245
0.411
0.235
0.192
0.319
0.325
0.1731

Below are some molecules; for each one, tell me its UV-A (400 320 nm) Max. abs..
1. CC(C)(C)OC(=O)c1ccc(Nc2cnc3ccccc3n2)cc1
2. COc1cc(Nc2nc3ccccc3nc2-c2ccccc2)cc(OC)c1OC

1. 0.506
2. 0.175

Below are some molecules; for each one, tell me its UV-A (400 320 nm) Max. abs..
1. CC(C)c1ccc(/C=C/C(=O)c2cnc3ccccc3n2)cc1
2. CC(=O)c1ccc(Nc2cnc3ccccc3n2)cc1
3. Clc1ccc(Nc2cnc3ccccc3n2)c(Cl)c1
4. Nc1nc2ccccc2nc1Cl

[0.7731, 0.622, 0.248, 0.427]

---

assay_info: Maxima of UV-A and UV-B absorption of quinoxaline derivatives in 2-propanol
Assay type: physicochemical
condition_notes: 1 mg of substance per 100 ml of solvent, absorbance at UV-B maximum
Strictly below 0.5 in UV-B (280 320 nm) Max. abs.: class 1. Otherwise: class 0.

# molecule, label_value
data = [
    ("CC(=O)c1ccc(Nc2cnc3ccccc3n2)cc1", "class 0"),
    ("CC(C)OC(=O)c1ccc(Nc2cnc3ccccc3n2)cc1", "class 0"),
    ("CCC(CC)COC(=O)c1ccc(Nc2cnc3ccccc3n2)c(O)c1", "class 0"),
    ("O=C(O)c1ccc(NCc2cnc3ccccc3n2)cc1", "class 0"),
]

Is it true that UV-B (280 320 nm) Max. abs. reported for CCOC(=O)c1ccc(Nc2cnc3ccccc3n2)cc1 is less than 0.5?
class 0

Is it true that UV-B (280 320 nm) Max. abs. reported for O=C(O)c1cc(Nc2cnc3ccccc3n2)cc(C(=O)O)c1 is less than 0.5?
class 0

Is it true that UV-B (280 320 nm) Max. abs. reported for CC(C)(C)OC(=O)c1ccc(Nc2cnc3ccccc3n2)cc1 is less than 0.5?
class 0

Is it true that UV-B (280 320 nm) Max. abs. reported for COc1cc(Nc2cnc3ccccc3n2)cc(OC)c1OC is less than 0.5?
class 0

Is it true that UV-B (280 320 nm) Max. abs. reported for C(#Cc1nc2ccccc2nc1C#Cc1ccccc1)c1ccccc1 is less than 0.5?
class 0

Is it true that UV-B (280 320 nm) Max. abs. reported for COc1cc(Nc2nc3ccccc3nc2-c2ccccc2)cc(OC)c1OC is less than 0.5?
class 1

Is it true that UV-B (280 320 nm) Max. abs. reported for O=C(O)c1ccc(Nc2nc3ccccc3nc2-c2ccccc2)cc1 is less than 0.5?
class 1

Is it true that UV-B (280 320 nm) Max. abs. reported for COc1ccc(Nc2cnc3ccccc3n2)cc1 is less than 0.5?
class 0

---

assay_info: Maxima of UV-A and UV-B absorption of quinoxaline derivatives in 2-propanol
Format: physicochemical
condition_notes: 1 mg of substance per 100 ml of solvent, absorbance at UV-A maximum
Method: The measurement was carried out in 2-propanol at a concentration of 1 mg of substance per 100 ml of solvent.
measured_quantity: UV-A (400 320 nm) Max. abs.
Answers are plain numbers.

Here are 5 compounds together with their reported answers.
# compound, UV-A (400 320 nm) Max. abs.
records = [
    ("CC(C)OC(=O)c1ccc(Nc2nc3ccccc3nc2-c2ccccc2)cc1", 0.342),
    ("O=C(OC/C=C/c1ccccc1)c1ccccc1Nc1cnc2ccccc2n1", 0.469),
    ("O=C(O)c1ccc(Nc2cnc3ccccc3n2)cc1", 0.378),
    ("CCOC(=O)CCC(NC(=O)c1ccc(Nc2cnc3ccccc3n2)cc1)C(=O)OCC (stereo not drawn)", 0.3076),
    ("COc1ccc(Nc2cnc3ccccc3n2)cc1", 0.306),
]

Proceeding to the next compound to report its UV-A (400 320 nm) Max. abs..
UV-A (400 320 nm) Max. abs. lookup needed for COC(=O)c1cc(Nc2cnc3ccccc3n2)cc(C(=O)OC)c1 , thanks.
0.322
